Please go through the items and note down their IC50.
target: MMP2 (Homo sapiens, UniProt P08253)
Sequence (P08253 110-660): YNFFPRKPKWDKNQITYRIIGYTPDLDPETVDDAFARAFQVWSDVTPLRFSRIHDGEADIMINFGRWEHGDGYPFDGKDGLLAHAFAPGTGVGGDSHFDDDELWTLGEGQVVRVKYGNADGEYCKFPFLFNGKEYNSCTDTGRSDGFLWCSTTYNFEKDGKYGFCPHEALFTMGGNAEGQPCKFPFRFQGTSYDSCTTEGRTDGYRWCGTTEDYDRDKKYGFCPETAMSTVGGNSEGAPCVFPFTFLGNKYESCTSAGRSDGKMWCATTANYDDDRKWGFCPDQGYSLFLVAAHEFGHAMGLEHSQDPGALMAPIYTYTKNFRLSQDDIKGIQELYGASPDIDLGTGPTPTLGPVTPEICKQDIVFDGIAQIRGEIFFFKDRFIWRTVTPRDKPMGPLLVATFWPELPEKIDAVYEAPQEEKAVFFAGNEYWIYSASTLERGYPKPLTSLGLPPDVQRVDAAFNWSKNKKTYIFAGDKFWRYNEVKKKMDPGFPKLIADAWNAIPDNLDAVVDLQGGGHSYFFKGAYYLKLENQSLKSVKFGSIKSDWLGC
assayComment: MMP-2 colorimetric inhibition assay (Enzo kit BML-AK408)
Format: biochemical

# compound, IC50
rows = [
    ("O=C(NO)[C@H]1[C@@H]2CC[C@H](CN1S(=O)(=O)c1ccc(Oc3ccc(OCC(F)(F)F)cc3)nc1)N2C(=O)N1CCOCC1", "< 50 nM"),
    ("COCCOC(=O)N1[C@@H]2CC[C@H]1[C@H](C(=O)NO)N(S(=O)(=O)N1CCC(Oc3ccc(Cl)cc3)C1)C2 (stereo partly shown)", "50 to 1000 nM"),
    ("COCCOC(=O)N1[C@@H]2CC[C@H]1[C@H](C(=O)NO)N(S(=O)(=O)c1ccc(OC3CCC(OC)CC3)nc1)C2 (stereo partly shown)", "< 50 nM"),
]

// below: IC50 requested for another compound
Fill blank: measured IC50 of the compound COCCOC(=O)N1[C@@H]2CC[C@H]1[C@H](C(=O)NO)N(S(=O)(=O)N1CCC(Oc3ccc(F)cc3)C1)C2 (stereo partly shown) is ____.
1000 to 10000 nM

* * *

Task for the reader: assign each of the following compounds its reported IC50.
target: ADAM10 (Homo sapiens)
Construct: purchased AnaSpec, Inc. AS-72226
Sequence (O14672 214-748): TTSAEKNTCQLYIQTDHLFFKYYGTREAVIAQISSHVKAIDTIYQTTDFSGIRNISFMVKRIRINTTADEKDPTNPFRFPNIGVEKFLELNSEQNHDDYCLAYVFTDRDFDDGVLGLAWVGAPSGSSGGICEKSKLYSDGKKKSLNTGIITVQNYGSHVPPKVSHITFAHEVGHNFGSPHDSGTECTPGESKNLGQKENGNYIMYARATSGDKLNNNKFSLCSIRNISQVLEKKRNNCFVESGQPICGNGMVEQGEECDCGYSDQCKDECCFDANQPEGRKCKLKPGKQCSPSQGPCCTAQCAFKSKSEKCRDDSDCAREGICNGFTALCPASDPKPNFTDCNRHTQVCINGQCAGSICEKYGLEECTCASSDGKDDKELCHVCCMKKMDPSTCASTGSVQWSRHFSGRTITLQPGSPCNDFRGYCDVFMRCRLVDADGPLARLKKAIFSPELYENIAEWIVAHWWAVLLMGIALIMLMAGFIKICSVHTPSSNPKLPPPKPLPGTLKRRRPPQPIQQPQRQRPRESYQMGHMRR
assayComment: SensoLyte 520 ADAM10 fluorometric activity assay (AnaSpec AS-72226)
Type: biochemical
cond: FRET peptide substrate, ex/em 495/520 nm; read-out: ADAM 10 IC50 class

# moleculeSmiles, IC50
rows = [
    ("COCCOC(=O)N1[C@@H]2CC[C@H]1[C@H](C(=O)NO)N(S(=O)(=O)c1ccc(Oc3ccc(Cl)cc3F)nc1)C2", "1 to 10 µM"),
]

Batch request: IC50 per item, same order as input.
1. COCCOC(=O)N1[C@@H]2CC[C@H]1[C@H](C(=O)NO)N(S(=O)(=O)c1ccc(Oc3ccc(F)c(F)c3)nc1)C2
2. COCCOC(=O)N1[C@@H]2CC[C@H]1[C@H](C(=O)NO)N(S(=O)(=O)N1CCC(Oc3ccc(F)cc3)CC1)C2
3. CC(=O)N1[C@@H]2CC[C@H]1[C@H](C(=O)NO)N(S(=O)(=O)c1ccc(Oc3ccc(OCC(F)(F)F)cc3)nc1)C2

1: > 10 µM; 2: 1 to 10 µM; 3: > 10 µM

Each compound below has a recorded value; state its IC50.
1. COCCOC(=O)N1[C@@H]2CC[C@H]1[C@H](C(=O)NO)N(S(=O)(=O)c1ccc(OC3CCCCC3)nc1)C2
2. COCCOC(=O)N1[C@@H]2CC[C@H]1[C@H](C(=O)NO)N(S(=O)(=O)c1ccc(Oc3cnn(C)c3)nc1)C2
3. COCCOC(=O)N1[C@@H]2CC[C@H]1[C@H](C(=O)NO)N(S(=O)(=O)c1ccc(Oc3ccc(F)cc3)nc1)C2

1: > 10 µM; 2: 1 to 10 µM; 3: 1 to 10 µM

* * *

Give pIC50 for every item shown.
target: MMP2 (Homo sapiens)
assayComment: MMP-2 colorimetric inhibition assay (Enzo kit BML-AK408)
Type: biochemical
cond: thiopeptide substrate, absorbance 415 nm; read-out: MMP 2 IC50 class
pIC50: −log10 of the molar value.

Look over these answered cases.
# moleculeSmiles, pIC50
rows = [
    ("COCCOC(=O)N1[C@@H]2CC[C@H]1[C@H](C(=O)NO)N(S(=O)(=O)N1CCC(Oc3ccc(F)cc3)CC1)C2", "> 7.30"),
    ("COCCOC(=O)N1[C@@H]2CC[C@H]1[C@H](C(=O)NO)N(S(=O)(=O)c1ccc(Oc3cnn(C)c3)c(F)c1)C2", "> 7.30"),
    ("CC(C)Oc1ccc(Oc2ccc(S(=O)(=O)N3C[C@H]4CC[C@@H]([C@@H]3C(=O)NO)N4C(=O)C(C)(C)C)cn2)cc1", "> 7.30"),
    ("COCCOC(=O)N1[C@@H]2CC[C@H]1[C@H](C(=O)NO)N(S(=O)(=O)c1ccc(Oc3nc4cc(F)ccc4o3)c(F)c1)C2", "5.00 to 6.00"),
    ("O=C(NO)[C@H]1[C@@H]2CC[C@H](CN1S(=O)(=O)c1ccc(Oc3ccc(F)cc3)nc1)N2C(=O)N1CCOCC1", "> 7.30"),
    ("CC(=O)N1[C@@H]2CC[C@H]1[C@H](C(=O)NO)N(S(=O)(=O)c1ccc(Oc3ccc(OC(C)C)cc3)nc1)C2", "> 7.30"),
    ("COCCOC(=O)N1[C@@H]2CC[C@H]1[C@H](C(=O)NO)N(S(=O)(=O)c1ccc(Oc3ccc(OC(C)(C)C)cc3)nc1)C2", "> 7.30"),
    ("CCOc1ccc(Oc2ccc(S(=O)(=O)N3C[C@H]4CC[C@@H]([C@@H]3C(=O)NO)N4C(=O)OCCOC)cn2)cc1", "> 7.30"),
    ("COCCOC(=O)N1[C@@H]2CC[C@H]1[C@H](C(=O)NO)N(S(=O)(=O)c1ccc(Oc3nc4ccc(F)cc4o3)c(F)c1)C2", "5.00 to 6.00"),
    ("COCCOC(=O)N1[C@@H]2CC[C@H]1[C@H](C(=O)NO)N(S(=O)(=O)c1ccc(Oc3cncc(Cl)c3)nc1)C2", "6.00 to 7.30"),
]

Batch of 3 molecules: report pIC50 for each.
1. COCCOC(=O)N1[C@@H]2CC[C@H]1[C@H](C(=O)NO)N(S(=O)(=O)c1ccc(Oc3ccc(OC(F)(F)F)cc3)nc1)C2
2. COCCOC(=O)N1[C@@H]2CC[C@H]1[C@H](C(=O)NO)N(S(=O)(=O)c1ccc(Oc3ccc(Cl)cc3F)nc1)C2
3. COCCOC(=O)N1[C@@H]2CC[C@H]1[C@H](C(=O)NO)N(S(=O)(=O)c1ccc(Oc3nc4ccccc4o3)c(F)c1)C2

["> 7.30", "> 7.30", "6.00 to 7.30"]

* * *

target: ADAM10 (Homo sapiens)
Construct: purchased AnaSpec, Inc. AS-72226
assayComment: SensoLyte 520 ADAM10 fluorometric activity assay (AnaSpec AS-72226)
Assay type: biochemical
cond: FRET peptide substrate, ex/em 495/520 nm; read-out: ADAM 10 IC50 class
propertyName: IC50

Use the examples below as a reference point.
# moleculeSmiles, IC50
records = [
    ("CC(C)C(=O)N1[C@@H]2CC[C@H]1[C@H](C(=O)NO)N(S(=O)(=O)c1ccc(Oc3ccc(OC(F)(F)F)cc3)nc1)C2", "> 10 µM"),
    ("CCc1ccc(Oc2ccc(S(=O)(=O)N3C[C@H]4CC[C@@H]([C@@H]3C(=O)NO)N4C(=O)OCCOC)cn2)cc1", "> 10 µM"),
]

Attention now turns to another entry.
What value of measured IC50 is listed for COCCOC(=O)N1[C@@H]2CC[C@H]1[C@H](C(=O)NO)N(S(=O)(=O)c1ccc(Oc3ccc(C)cc3)nc1)C2 ?
> 10 µM

* * *

target: ADAM17 (TACE) (Homo sapiens)
Sequence (P78536 215-477 limits assumed): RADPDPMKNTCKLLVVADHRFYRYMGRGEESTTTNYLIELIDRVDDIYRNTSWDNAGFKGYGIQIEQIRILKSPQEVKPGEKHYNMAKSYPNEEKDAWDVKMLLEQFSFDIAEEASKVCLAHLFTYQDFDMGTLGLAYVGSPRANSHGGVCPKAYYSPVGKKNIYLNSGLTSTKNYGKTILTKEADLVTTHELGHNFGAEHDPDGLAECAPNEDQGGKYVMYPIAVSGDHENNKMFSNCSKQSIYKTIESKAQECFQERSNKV
assayComment: TACE fluorometric inhibition assay (Enzo kit BML-AK310)
Assay type: biochemical
cond: quenched fluorogenic peptide, ex/em 320/420 nm; read-out: TACE IC50 class
pIC50: −log10 of the molar value.
Give measured pIC50 for each item. Keep answers brief.

# moleculeSmiles, pIC50
records = [
    ("COCCOC(=O)N1[C@@H]2CC[C@H]1[C@H](C(=O)NO)N(S(=O)(=O)c1ccc(Oc3cnn(-c4ccccc4)c3)nc1)C2", "6.00 to 7.30"),
    ("CCC(=O)N1[C@@H]2CC[C@H]1[C@H](C(=O)NO)N(S(=O)(=O)c1ccc(Oc3ccc(OC(F)(F)F)cc3)nc1)C2", "5.00 to 6.00"),
    ("CN1CCN(C(=O)N2[C@@H]3CC[C@H]2[C@H](C(=O)NO)N(S(=O)(=O)c2ccc(Oc4ccc(F)cc4)nc2)C3)CC1", "5.00 to 6.00"),
    ("COCCOC(=O)N1[C@@H]2CC[C@H]1[C@H](C(=O)NO)N(S(=O)(=O)c1ccc(Oc3ccc(OC)nc3)nc1)C2", "5.00 to 6.00"),
    ("CC(=O)N1[C@@H]2CC[C@H]1[C@H](C(=O)NO)N(S(=O)(=O)c1ccc(Oc3ccc(F)cc3)nc1)C2", "5.00 to 6.00"),
]

Items follow; give pIC50 for each.
1. CC(C)(C)C(=O)N1[C@@H]2CC[C@H]1[C@H](C(=O)NO)N(S(=O)(=O)c1ccc(Oc3ccc(OC(F)(F)F)cc3)nc1)C2
2. COCCOC(=O)N1[C@@H]2CC[C@H]1[C@H](C(=O)NO)N(S(=O)(=O)c1ccc(Oc3ccc(F)cn3)cc1)C2
3. CC(=O)N1[C@@H]2CC[C@H]1[C@H](C(=O)NO)N(S(=O)(=O)c1ccc(Oc3ccc(OC(F)(F)F)cc3)nc1)C2

5.00 to 6.00
6.00 to 7.30
5.00 to 6.00

Measured values drawn from patent US20250215010A1 for this set.
